Each recorded value in this set is attributed to paper PMC2926617.

- subject.of.test: P01, CarA α2 peptide (α2 segment plus the subsequent eight C-terminal residues) (Myxococcus xanthus)
- assay.protocol: ITC
parameter.measured: Kd (nM)
Give bare numbers, in nM.

Prompt: Provide only the value of recorded Kd for CarS1, functional truncated form of CarS (lacking the last 25 residues) (domain or fragment) MIQDPSLIICHDVDGAPVRIGAKVKVVPHSEDGTISQRFLGQTGIVVGLVFDDPATQYPDDPLIQVLVEGLGEDLFFPEELELAPE
Completion: 200
